- EXPERIMENTAL_SYSTEM: hα7-wt nAChR (Homo sapiens, UniProt P36544)
- Construct: expressed in transfected cells
- Sequence (P36544 23-502): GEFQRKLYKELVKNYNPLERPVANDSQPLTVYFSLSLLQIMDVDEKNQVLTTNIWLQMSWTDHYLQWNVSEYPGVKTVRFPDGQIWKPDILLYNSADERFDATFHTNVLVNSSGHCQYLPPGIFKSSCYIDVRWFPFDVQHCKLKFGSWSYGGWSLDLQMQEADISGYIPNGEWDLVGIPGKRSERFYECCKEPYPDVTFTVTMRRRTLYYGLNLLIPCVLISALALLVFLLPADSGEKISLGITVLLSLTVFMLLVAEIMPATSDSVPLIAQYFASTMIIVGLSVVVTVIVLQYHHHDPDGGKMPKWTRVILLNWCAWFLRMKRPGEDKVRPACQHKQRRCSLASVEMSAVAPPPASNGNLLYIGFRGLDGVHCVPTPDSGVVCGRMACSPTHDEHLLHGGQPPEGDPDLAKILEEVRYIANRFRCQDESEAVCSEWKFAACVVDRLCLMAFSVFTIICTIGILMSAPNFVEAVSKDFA
- TEST_PROTOCOL: Ca2+ flux imaging (FLIPR) (Protocol A), PAM activity with choline as agonist
- Type: cell-based
- ASSAY_CONTEXT: "<5" = no top plateau at maximal concentration
- Experimental: Stable expression in mammalian cells in general and rat GH4C1 cells in particular, of cDNA clones encoding the human α7 wild-type sequence (hα7-wt nAChR) and in which the coding region is placed downstream of a promoter results in the appearance of functional α7 nAChRs on the surface of the mammalian cells. […] A control response to choline was calculated on each plate from the difference in peak in fluorescence in wells receiving either choline or assay buffer alone. […]
MEASURED_METRIC: pEC50
Conceptually, pEC50 converts a concentration in mol/L into minus its log10.

Use these answered entries as a reference point.
| STRUCTURE | pEC50 |
| --- | --- |
| OCCn1nc(Nc2cccc(C(F)(F)F)c2)nc1-c1ccc2c(c1)OCCO2 | 5.50 |
| C[C@@H](O)Cn1nc(Nc2ccc(F)c(C(F)(F)F)c2)nc1-c1ccc(C2CC2)nc1 | 5.40 |
| OCCn1nc(Nc2cccc(C(F)(F)F)c2)nc1-c1cnc2ccccc2c1 | 5.50 |
| OCCn1nc(Nc2cccc(C(F)(F)F)c2)nc1-c1ccnc(N2CCOCC2)c1 | 5.40 |

Moving on to another compound below.
// recorded pEC50 for `CNC(=O)Cn1nc(Nc2cccc(C(F)(F)F)c2)nc1-c1ccc(Cl)cc1Cl` : 5.70
